Assignment: determine reported %Inh for the given compounds.
- System: QSK
- test parameters: concentration: 1 μM, replicates: in singlicate; n = 1;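 note: KINOMEscan kinase panel screen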
One number for each entry, in %.

Below are worked cases with known answers.
1) O=C(Nc1n[nH]c2nc(-c3cccs3)c(Br)cc12)C1CCCC1 [SB-743341]
4
2) CC(C)c1cc(-c2ccc3c(N)n[nH]c3c2)nc(N)n1 [GSK2250882]
4
3) COc1ccc(Nc2nccc(N3CCC(NC(=O)c4cc5ccccc5s4)C3)n2)cc1 (centres unmarked) [GSK1379738]
0

Field: %Inh. Fill in for each record below.
1. Nc1nccc(-c2c(-c3ccc(F)cc3)ncn2C2CCN(Cc3ccccc3)CC2)n1 [SB-219980]
2. CNC(=O)c1ccc(C)c(-n2c(C)cc(OCc3ccc(F)cc3F)c(Br)c2=O)c1

OUTPUT:
0
0

###

- Test system: TRKB
- test parameters: concentration: 1 μM, replicates: in singlicate; n = 1
The label is label 1 for %Inh below 20% and label 0 for %Inh equal to or exceeding 20%.

1. COc1ccc2cc(-c3nc(-c4ccccc4C(C)C)[nH]c3-c3ccncc3)ccc2c1
label 1
2. COc1ccc(CSc2nnc(-c3ccc4nccn4c3)o2)cc1C(F)(F)F
label 1
3. O=C(Nc1n[nH]c2cc(-c3ccsc3)ccc12)C1CC1
label 0

INPUT: Please let me know if `COc1cc2ncnc(Nc3cccc(Br)c3)c2cc1OC.Cl` shows %Inh below 20%.
OUTPUT: label 0

INPUT: Please let me know if `Cn1cncc1-c1cc2c(Nc3ccc(OCc4ccccc4)cc3)ncnc2cn1` shows %Inh below 20%.
OUTPUT: label 0

INPUT: Please let me know if `Cc1nccc(-c2c(-c3ccc(F)cc3)ncn2CCCN2CCOCC2)n1.Cl` shows %Inh below 20%.
OUTPUT: label 1

INPUT: Please let me know if `O=C1NC(=O)C(c2ccc(Cl)cc2)=C1Nc1cccc(Cl)c1` shows %Inh below 20%.
OUTPUT: label 0

INPUT: Please let me know if `COc1nccc(-c2c(-c3ccc(F)cc3)ncn2CCCN2CCOCC2)n1` shows %Inh below 20%.
OUTPUT: label 0

INPUT: Please let me know if `CS(=O)(=O)Cc1ccc(Nc2nccc(-c3c(-c4cccc(NC(=O)C5CCCCC5)c4)nn4ncccc34)n2)cc1` shows %Inh below 20%.
OUTPUT: label 1

INPUT: Please let me know if Cn1cncc1C(=O)NC1CCN(c2ccnc(Nc3ccc(F)cc3)n2)C1 (stereo not drawn) shows %Inh below 20%.
OUTPUT: label 1

INPUT: Please let me know if `COc1ccc(-c2coc3ccc(-c4nnc(C)o4)cc23)cc1` shows %Inh below 20%.
OUTPUT: label 1

INPUT: Please let me know if `COc1ccc(Nc2nccc(-c3ccc(NC(=O)c4cc5cc(F)ccc5[nH]4)cc3)n2)cc1` shows %Inh below 20%.
OUTPUT: label 1

INPUT: Please let me know if `O=C1NC(=O)C(c2ccc(Cl)cc2)=C1Nc1ccc(O)cc1` shows %Inh below 20%.
OUTPUT: label 1

###

- System: PIKFYVE
- test parameters: concentration: 1 μM, replicates: in singlicate; n = 1
Assignment: determine reported %Inh for the given molecules.
Give bare numbers, in %.

Below are worked cases with known answers.
1) Cn1cnc2c(N)ncnc21 [SKF-97623]
44
2) CNc1nc(-c2ccc3c(N)n[nH]c3c2)cc(N2C[C@@H](C(=O)NC3CCCCC3)OC[C@H]2C)n1 [GSK2375584]
0

Field: %Inh. Fill in for each record below.
1. COc1ccc(Nc2nccc(NCCNC(=O)Nc3cc(C)ccc3C)n2)cc1 [GSK1379899]
2. Cc1ccc(NC(=O)Nc2ccccc2)cc1-c1ccc(C(=O)Nc2ccncc2)cc1 [GSK1398471]
3. COc1ccc(CSc2nnc(-c3ccc4nccn4c3)o2)cc1C(F)(F)F
4. CC(=O)c1c(C)c2cnc(Nc3ccc(N4CCNCC4)cn3)nc2n(C2CCCC2)c1=O
5. CNC(=O)c1ccc(C)c(-n2c(C)cc(OCc3ccc(F)cc3F)c(Br)c2=O)c1
6. COc1ccc(Nc2nccc(-c3ccc(NC(=O)c4cc5cc(F)ccc5[nH]4)cc3)n2)cc1 [GSK1229496]

OUTPUT:
1: 0; 2: 0; 3: 0; 4: 39; 5: 40; 6: 0

INPUT: Provide only the value of recorded %Inh for COC(=O)c1cccc(NC(=O)NC2CCN(c3ccnc(Nc4ccc(F)cc4)n3)C2)c1 (stereo not drawn) [GSK1379725]
OUTPUT: 0

FYI, the data here is from paper PMC5540273.
